EXPERIMENTAL PROTOCOL: In vivo PK, peroral vs. intravenous administration, peroral bioavailability
Design: species or system mouse
CONDITION DETAILS: mouse, in vivo; mice, 7.5 mg/kg iv, mean (n = 3)
READOUT NAME: C0 (ng/mL)
Please state the figure in ng/mL; there is no need to write the unit.

Reported C0 of CC1=CC(C)C2C(C=CC3C(C)C=CC=CC(C)OC(=O)C(C)C(=O)CC(=O)C32)C1 (stereo not shown) : 872

---

EXPERIMENTAL PROTOCOL: Plasma protein binding (PPB)
Assay type: in vitro ADME, rat
CONDITION DETAILS: plasma; all species: rat
Method: Complementing the toxicity profiling, ADME properties of the lead dehalogenil were determined. This had not been possible for the first generation frontrunner ChB1-Epo2 or the natural product ChA because of their poor limit of detection. […] Across species (mouse, rat, human), metabolic stability is high while plasma stability is moderate. Besides, no hemolysis and no inhibition of the metabolically important enzyme CYP3A4 was observed by both dehalogenil and ChA. […]
READOUT NAME: fraction unbound

Entry CC1=CC(C)C2C(C=CC3C(C)C=CC=CC(C)OC(=O)C(C)C(=O)CC(=O)C32)C1 (stereo not shown) ; fraction unbound = < 0.006

---

EXPERIMENTAL PROTOCOL: Metabolic stability
Assay type: in vitro ADME
CONDITION DETAILS: human, liver microsomes; read-out: microsomal clearance
READOUT NAME: microsomal CLint (µL/min/mg)
The reply should be a number in µL/min/mg, with the unit left off.

Entry under test: CC1=CC(C)C2C(C=CC3C(C)C=CC=CC(C)OC(=O)C(C)C(=O)CC(=O)C32)C1 (stereo not shown) . Its microsomal CLint was 6.4

---

System: E. faecium
EXPERIMENTAL PROTOCOL: MIC 50/90 profiling in multidrug-resistant clinical isolates
Assay type: cell-based
CONDITION DETAILS: Enterococcus faecium, read-out: MIC range
READOUT NAME: MIC

[
  {
    "COMPOUND": "CC(=O)NC[C@H]1CN(c2ccc(N3CCOCC3)c(F)c2)C(=O)O1",
    "READOUT NAME": "MIC",
    "VALUE": "0.5 to 64 µg/mL"
  },
  {
    "COMPOUND": "CC1=CC(C)C2C(C=CC3C(C)C=CC=CC(C)OC(=O)C(C)C(=O)CC(=O)C32)C1 (stereo not shown)",
    "READOUT NAME": "MIC",
    "VALUE": "0.00625 to 0.2 µg/mL"
  },
  {
    "COMPOUND": "CCCCCCCCCC(=O)N[C@@H](Cc1c[nH]c2ccccc12)C(=O)N[C@H](CC(N)=O)C(=O)N[C@@H](CC(=O)O)C(=O)N[C@@H]1C(=O)NCC(=O)N[C@@H](CCCN)C(=O)N[C@@H](CC(=O)O)C(=O)N[C@H](C)C(=O)N[C@@H](CC(=O)O)C(=O)NCC(=O)N[C@H](CO)C(=O)N[C@@H]([C@H](C)CC(=O)O)C(=O)N[C@@H](CC(=O)c2ccccc2N)C(=O)O[C@@H]1C",
    "READOUT NAME": "MIC",
    "VALUE": "0.5 to 4 µg/mL"
  }
]

Sure, the documented MIC for `CN(C)c1cc(NC(=O)CNC(C)(C)C)c(O)c2c1C[C@H]1C[C@H]3[C@H](N(C)C)C(=O)C(C(N)=O)=C(O)[C@@]3(O)C(=O)C1=C2O` is 0.5 to 16 µg/mL

---

The following compounds are shown together with reported Selectivity Index S. aureus values.
System: zebrafish larvae
EXPERIMENTAL PROTOCOL: Toxicity in zebrafish larvae (MTC / IC50)
Assay type: in vivo
CONDITION DETAILS: zebrafish IC50 / MIC S. aureus Newman
API doc: respond with a numeric literal and nothing else, no unit.

Guide cases for Selectivity Index S. aureus, answers given:
[
  {
    "COMPOUND": "CC1=CC(C)C2C(C=CC3C(C)C=CC=CC(C)OC(=O)C(C)(C)C(=O)C(Cl)=C(O)C32)C1 (centres unmarked) [ChB1-2′Me]",
    "READOUT NAME": "Selectivity Index S. aureus",
    "VALUE": 14.1
  },
  {
    "COMPOUND": "CC1=CC(C)C2C(C=CC3C(C)C=CC=CC(C)OC(=O)CC(=O)C(Cl)=C(O)C32)C1 (centres unmarked) [ChB1-2′DM, 2′Demethylchlorotonil]",
    "READOUT NAME": "Selectivity Index S. aureus",
    "VALUE": 35.8
  },
  {
    "COMPOUND": "CC1=CC(C)C2C(C=CC3C(C)C=CC=CC(C)OC(=O)C(C)C(=O)CC(=O)C32)C1 (centres unmarked) [dehalogenil]",
    "READOUT NAME": "Selectivity Index S. aureus",
    "VALUE": 224.8
  }
]

Now let's try a different one.
Short answer on zebrafish larvae for CC1C=CC=CC(C)C2C=CC3CC4(C)OC4C(C)C3C2C(=O)CC(=O)C(C)C(=O)O1 (centres unmarked) [Dehalogenil-Epo2] , Selectivity Index S. aureus: 1.30

---

EXPERIMENTAL PROTOCOL: In vivo PK after subcutaneous application (50% ClearSol/PBS pH 7.4)
Design: species or system mouse
CONDITION DETAILS: mouse, in vivo; mice, 5 mg/kg sc; n = 3
READOUT NAME: Tmax (h)
The reply should be a number in h, with the unit left off.

response.value for CC1=CC(C)C2C(C=CC3C(C)C=CC=CC(C)OC(=O)C(C)C(=O)CC(=O)C32)C1 (stereo not shown) (field: Tmax) = 7

---

EXPERIMENTAL PROTOCOL: In vivo PK after peroral administration (soy oil)
Parameters: species or system mouse
CONDITION DETAILS: mouse, plasma, po, 50 mg/kg, mice, 50 mg/kg po, soy oil; read-out: t1/2z (converted)
READOUT NAME: half-life (h)
Supply the numeric figure in h, leaving out any unit text.

For record CC1=CC(C)C2C(C=CC3C(C)C=CC=CC(C)OC(=O)C(C)C(=O)CC(=O)C32)C1 (stereo not shown) [dehalogenil] the listed half-life is 10

---

EXPERIMENTAL PROTOCOL: Aqueous solubility
Type: physicochemical
CONDITION DETAILS: pH 7.4; read-out: semi thermodynamic solubility
READOUT NAME: solubility thermodynamic (µM)
Write the answer as a number in µM, unit excluded.

Looking up CC1=CC(C)C2C(C=CC3C(C)C=CC=CC(C)OC(=O)C(C)C(=O)CC(=O)C32)C1 (stereo not shown) [dehalogenil] , I found its solubility thermodynamic recorded as 41.4

---

EXPERIMENTAL PROTOCOL: Plasma protein binding (PPB)
Type: in vitro ADME
CONDITION DETAILS: human, all species: human, read-out: Plasma protein binding (PPB)
READOUT NAME: fraction unbound

// fraction unbound lookup, compound = CC1=CC(C)C2C(C=CC3C(C)C=CC=CC(C)OC(=O)C(C)C(=O)CC(=O)C32)C1 (stereo not shown) , result: < 0.006

---

Measured MIC S. aureus by item
Tested on: S. aureus Newman
EXPERIMENTAL PROTOCOL: MIC testing (broth microdilution, EUCAST)
Type: cell-based
Answer shape: numeric part, then the unit.

Consider the worked cases shown below.
[
  {
    "COMPOUND": "CC1=C[C@@H](C)[C@H]2[C@@H]3C(O)=C(SS)C(=O)[C@H](C)C(=O)O[C@@H](C)/C=C/C=C\\[C@@H](C)[C@@H]3C=C[C@@H]2C1",
    "VALUE": "0.4 µg/mL"
  },
  {
    "COMPOUND": "CC1=C[C@@H](C)[C@H]2[C@@H]3C(=O)C(Cl)=C([O-])[C@H](C)C(=O)O[C@@H](C)/C=C/C=C\\[C@@H](C)[C@@H]3C=C[C@@H]2C1.CC1=C[C@@H](C)[C@H]2[C@@H]3C(=O)C(Cl)=C([O-])[C@H](C)C(=O)O[C@@H](C)/C=C/C=C\\[C@@H](C)[C@@H]3C=C[C@@H]2C1.CC1=C[C@@H](C)[C@H]2[C@@H]3C(=O)C(Cl)=C([O-])[C@H](C)C(=O)O[C@@H](C)/C=C/C=C\\[C@@H](C)[C@@H]3C=C[C@@H]2C1.[Mg+2].[Na+] [ChB2, reference compound]",
    "VALUE": "3.2 µg/mL"
  },
  {
    "COMPOUND": "CC1=CC(C)C2C(C=CC3C(C)C=CC=CC(C)OC(=O)C(C)C(=O)CC(=O)C32)C1 (stereo not drawn) [dehalogenil]",
    "VALUE": "0.05 µg/mL"
  },
  {
    "COMPOUND": "CC1C=CC=CC(C)C2C=CC3CC4(C)OC4C(C)C3C2C(=O)CC(=O)C(C)C(=O)O1 (stereo not drawn) [Dehalogenil-Epo1]",
    "VALUE": "3.2 µg/mL"
  },
  {
    "COMPOUND": "CC1=CC(C)C2C(C=CC3C(C)C=CC=CC(C)OC(=O)C(C)(C)C(=O)C(Cl)=C(O)C32)C1 (stereo not drawn)",
    "VALUE": "0.4 µg/mL"
  },
  {
    "COMPOUND": "CC1=CC(C)C2C(C=CC3C(C)C=CC=CC(C)OC(=O)C(C)C(=O)C(Cl)=C(O)C32)C1 (stereo not drawn) [ChB1, reference compound]",
    "VALUE": "0.2 µg/mL"
  },
  {
    "COMPOUND": "CC1=CC(C)C2C(C=CC3C(C)C=CC=CC(C)OC(=O)CC(=O)C(Cl)=C(O)C32)C1 (stereo not drawn)",
    "VALUE": "0.4 µg/mL"
  },
  {
    "COMPOUND": "CC1C=CC=CC(C)C2C=CC3CC4(C)OC4C(C)C3C2C(=O)CC(=O)C(C)C(=O)O1 (stereo not drawn) [Dehalogenil-Epo2]",
    "VALUE": "0.4 µg/mL"
  }
]

# context switch: different compound, same MIC S. aureus
Reported MIC S. aureus for CC1=CC(C)C2C(C=CC3C(C)C=CC=CC(C)OC(=O)C(C)C(=O)CC(=O)C32)C1 (stereo not drawn) [dehalogenil-2′Epi] was 0.2 µg/mL
